System: liver damage induced by α-naphthyl isothiocyanate (ANIT)
EXPERIMENTAL DETAILS: Protective effect on liver damage induced by ANIT (Method 2)
Type: in vivo, mice (dd strain)
TEST PARAMETERS: Table 3-3; 250 mg/kg p.o., ANIT 35 mg/kg p.o. after 6 h, 24 h; control 2.9, ANIT alone >9.6
The entries below are paired with their reported Alkaline phosphatase activity.

| MOLECULE | MEASURED TARGET | UNITS SYMBOL | Alkaline phosphatase activity |
| --- | --- | --- | --- |
| CC(=O)C(C(=O)OC(C)C)=C1SC(O)C(O)S1 (stereo not drawn) [Compound 37] | liver damage induced by α-naphthyl isothiocyanate (ANIT) | B-L.V. | 4.4 |
| CC(=O)C(C(=O)OCc1ccccc1)=C1SC(O)C(O)S1 (stereo not drawn) [Compound 48] | liver damage induced by α-naphthyl isothiocyanate (ANIT) | B-L.V. | 4.1 |
| CCC(C)OC(=O)C(C(C)=O)=C1SC(O)C(O)S1 (stereo not drawn) [Compound 40] | liver damage induced by α-naphthyl isothiocyanate (ANIT) | B-L.V. | 5.2 |
| CC(=O)C(C(=O)OC1CCCCC1)=C1SC(O)C(O)S1 (stereo not drawn) [Compound 44] | liver damage induced by α-naphthyl isothiocyanate (ANIT) | B-L.V. | 5.1 |
| CCCCCOC(=O)C(C(C)=O)=C1SC(O)C(O)S1 (stereo not drawn) [Compound 42] | liver damage induced by α-naphthyl isothiocyanate (ANIT) | B-L.V. | 4.8 |
| CCOC(=O)C(C(C)=O)=C1SC(O)C(O)S1 (stereo not drawn) [Compound 35] | liver damage induced by α-naphthyl isothiocyanate (ANIT) | B-L.V. | 4.6 |
| CC(=O)C(C(=O)OCC(C)C)=C1SC(O)C(O)S1 (stereo not drawn) [Compound 39] | liver damage induced by α-naphthyl isothiocyanate (ANIT) | B-L.V. | 6.8 |
| C#CCOC(=O)C(C(C)=O)=C1SC(O)C(O)S1 (stereo not drawn) [Compound 46] | liver damage induced by α-naphthyl isothiocyanate (ANIT) | B-L.V. | 5.3 |
| CCCCOC(=O)C(C(C)=O)=C1SC(O)C(O)S1 (stereo not drawn) [Compound 38] | liver damage induced by α-naphthyl isothiocyanate (ANIT) | B-L.V. | 5.3 |
| C=CCOC(=O)C(C(C)=O)=C1SC(O)C(O)S1 (stereo not drawn) [Compound 45] | liver damage induced by α-naphthyl isothiocyanate (ANIT) | B-L.V. | 5.6 |
| CC(=O)C(C(=O)OC(C)(C)C)=C1SC(O)C(O)S1 (stereo not drawn) [Compound 41] | liver damage induced by α-naphthyl isothiocyanate (ANIT) | B-L.V. | 6.0 |
| CCCOC(=O)C(C(C)=O)=C1SC(O)C(O)S1 (stereo not drawn) [Compound 36] | liver damage induced by α-naphthyl isothiocyanate (ANIT) | B-L.V. | 3.9 |
| COCCOC(=O)C(C(C)=O)=C1SC(O)C(O)S1 (stereo not drawn) [Compound 47] | liver damage induced by α-naphthyl isothiocyanate (ANIT) | B-L.V. | 4.2 |
| CC(=O)C(C(=O)OCCC(C)C)=C1SC(O)C(O)S1 (stereo not drawn) [Compound 43] | liver damage induced by α-naphthyl isothiocyanate (ANIT) | B-L.V. | 5.9 |
| COC(=O)C(C(C)=O)=C1SC(O)C(O)S1 (stereo not drawn) [Compound 34] | liver damage induced by α-naphthyl isothiocyanate (ANIT) | B-L.V. | 4.2 |
